apparent KD of MS2 coat protein values, listed per item
- Test system: MS2 coat protein
- Run description: apparent KD of MS2 coat protein; designed switch direction (-1 OFF switch, 1 ON switch): -1; higher = weaker reporter binding
- Measurement context: input ligand: FMN 200 uM

- Ordered residues: "ACAAUGUUAGGAUAUCUGACAAUUAGUCUCGACUAGUCGAAAGAGAAGGAACAUGAGGAUCACCCAUGUAGAUC [EX4 #73] (Eterna round: R97, puzzle: Exclusion 4)"
  apparent KD of MS2 coat protein (nM): 144
- Ordered residues: "AAGAUGUCAGGAUAUUAGUAGUAAAUGAAUAAAAUUAUUACUGAGAAGGGACAUGAGGAUCACCCAUGUGUCUU [Mat - Exclusion 4 - Eli Mod - D11] (Eterna round: R97, puzzle: Exclusion 4)"
  apparent KD of MS2 coat protein (nM): 80.2
- Ordered residues: "UUAAUUAAUUGACUGCAAGAUCAACAUGAGGAUCACCCAUGUGAGGAUAUCAGCUCGUGUAGAGCUGAGAAGGCACAAGCAGUC [ExNG3/16-A3] (Eterna round: R96, puzzle: Exclusion NG 3)"
  apparent KD of MS2 coat protein (nM): 73.6
